experiment: qHTS assay to identify small molecule that activate the aryl hydrocarbon receptor (AhR) signaling pathway - cell viability counter screen (AID 743086); conditions: HepG2-AhR-luc viability, CellTiter-Fluor, 24 h; series mostly up to 70.3 µM;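 note: HepG2 liver cells carrying the AhR DRE luciferase reporter; nearly all actives have a fitted effect of over 45% in size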
Inconclusive results are not listed. Active and inactive are the calls of the source. Calls come from the whole dose curve; as a rule, active = well fitted cell-killing curve with a large enough effect in the repeat runs; inconclusive = weak or mixed curves, or effect the other way; inactive = flat fitted curve, though single readings scatter.
parameter: outcome

[[record]]
compoundstructurestring = "CC1(C)O[C@@H]2C[C@H]3[C@@H]4CCC5=CC(=O)C=C[C@]5(C)[C@@]4(F)[C@@H](O)C[C@]3(C)[C@]2(C(=O)CO)O1"
measuredresult = "inactive"

[[record]]
compoundstructurestring = "O=c1[nH]cnc2c1ncn2[C@H]1CC[C@@H](CO)O1"
measuredresult = "inactive"

[[record]]
compoundstructurestring = "O=C1c2c(O)cccc2Cc2cccc(O)c21"
measuredresult = "inactive"

